# test.target: HLA-A*24 (peptide-receptive MHC class I monomer of the UV-ligand exchange assay) (human)
# protocol.details: UV-ligand exchange with anti-b2m ELISA
reported.endpoint: peptide exchange yield

- EYPLVINTL [Peptide SEQ ID NO: 219 (…)]: 50 to 75%
- YFIDSTNLKTHF [Peptide SEQ ID NO: 269 (…)]: 50 to 75%
- IYDDSFIRPVTF [Peptide SEQ ID NO: 180 (…)]: 50 to 75%
- KYPVEWAKF [Peptide SEQ ID NO: 289 (…)]: > 75%
- IYATEAHVF [Peptide SEQ ID NO: 201 (…)]: 50 to 75%
- VYTLDIPVL [Peptide SEQ ID NO: 160 (…)]: > 75%
- YYGPSLFLL [Peptide SEQ ID NO: 200 (…)]: 50 to 75%
- MYDSYWRQF [Peptide SEQ ID NO: 179 (…)]: > 75%
- VYVSDIQEL [Peptide SEQ ID NO: 288 (…)]: 50 to 75%
- VYEDQVGKF [Peptide SEQ ID NO: 170 (…)]: 20 to 49%
- VFKASKITF [Peptide SEQ ID NO: 191 (…)]: 50 to 75%
- LYIDRPLPYL [Peptide SEQ ID NO: 196 (…)]: 50 to 75%
- YYLEVGKTLI [Peptide SEQ ID NO: 211 (…)]: > 75%
- VYPWLGALL [Peptide SEQ ID NO: 177 (…)]: > 75%
- TYGDAGLTYTF [Peptide SEQ ID NO: 283 (…)]: 50 to 75%
- IFLDYEAGTLSF [Peptide SEQ ID NO: 227 (…)]: > 75%
